test system: Candida glabrata; assay: checkerboard drug interaction (FICI, MICc);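 further: simplified diagonal checkerboard screen pairing antifungals with FPPS inhibitors, FICI calculated under the Loewe additivity model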; assay type: cell-based; conditions: C. glabrata; ITR:INH combination
Measured quantity: FICI
Enter a number only.

Which FICI value is on record for `CCCCCCCCCCCN1CCC[C@H]1C(=O)N[C@H](CC(=O)OC)C(=O)OC` ?
1

State the recorded FICI for this entry: `CCCCCCCCCCN1CCC[C@H]1C(=O)N[C@H](CC(=O)OC)C(=O)OC`
3

Entry `CCCCCCCCCCCN1CCC[C@H]1C(=O)N[C@H](CC(=O)O)C(=O)O` : reported FICI = ?
0.28

May I ask what FICI has been recorded for `CCCCCCCCCN1CCC[C@H]1C(=O)N[C@@H](CC(=O)O)C(=O)O` ?
0.28

Would you kindly share the measured FICI for `CCCCCCCCCCCCN1CCC[C@H]1C(=O)N[C@H](CC(=O)OC)C(=O)OC` ?
1.5

# lookup: FICI of `CCCCCCCCCN1CCC[C@H]1C(=O)N[C@H](CC(=O)OC)C(=O)OC`
1.13

What does the data say about its FICI? Entry: `CCCCCCCCCCN1CCC[C@H]1C(=O)N[C@@H](CC(=O)OC)C(=O)OC`
1.5

Field request: FICI | item: O=P(O)(O)C(O)(Cn1ccnc1)P(=O)(O)O [ZOL, zoledronate]
0.16

Given the entry `CCCCCCCCCCCCN1CCC[C@H]1C(=O)N[C@H](CC(=O)O)C(=O)O` , report its measured FICI.
0.31

State the recorded FICI for this entry: `CCCCCCCCCCCCN1CCC[C@H]1C(=O)N[C@@H](CC(=O)OC)C(=O)OC`
0.38

What measured FICI goes with `CCCCCCCCCCCN1CCC[C@H]1C(=O)N[C@@H](CC(=O)OC)C(=O)OC` ?
1

Find the recorded FICI belonging to `CCCCCCCCCN1CCC[C@H]1C(=O)N[C@H](CC(=O)O)C(=O)O` and report it.
0.28

Which FICI value is on record for `CCCCCCCCCCCN1CCC[C@H]1C(=O)N[C@@H](CC(=O)O)C(=O)O` ?
0.27

Requested field: FICI. Item: `CCCCCCCCCN1CCC[C@H]1C(=O)N[C@@H](CC(=O)OC)C(=O)OC`
1.5

* * *

test system: Aspergillus fumigatus; assay: checkerboard drug interaction (FICI, MICc); assay type: cell-based; details: A. fumigatus; FLC:INH combination; fold decrease of FLC MIC
Measured quantity: FLC FD (MIC-MICc fold decrease)
Field format: numeric only.

Given the molecule CCCCCCCCCN1CCC[C@H]1C(=O)N[C@@H](CC(=O)O)C(=O)O [PLA9] , what is its reported FLC FD (MIC-MICc fold decrease)?
1

Reported FLC FD (MIC-MICc fold decrease) for O=P(O)(O)C(O)(Cn1ccnc1)P(=O)(O)O [ZOL, zoledronate] : what is it?
2

Suppose we examine the molecule CCCCCCCCCN1CCC[C@H]1C(=O)N[C@@H](CC(=O)OC)C(=O)OC [dmPLA9] ; what FLC FD (MIC-MICc fold decrease) value has been reported?
1

Consider the molecule shown here: CCCCCCCCCCCN1CCC[C@H]1C(=O)N[C@@H](CC(=O)O)C(=O)O [PLA11] What is its recorded FLC FD (MIC-MICc fold decrease)?
1

Looking for the measured FLC FD (MIC-MICc fold decrease) of CCCCCCCCCCN1CCC[C@H]1C(=O)N[C@@H](CC(=O)OC)C(=O)OC [dmPLA10] , can you help?
16
